Below are IC50 values measured for hMCH-1R (Homo sapiens (Human)).

[
  {
    "molecule": "Cc1cc(CN(C)C)ccc1C(=O)Cn1ccc(OCc2ccc(Cl)cn2)cc1=O",
    "IC50": "32 nM"
  },
  {
    "molecule": "Cc1cc(CN2CCN(C)CC2)ccc1C(=O)Cn1ccc(OCc2ccccc2)cc1=O",
    "IC50": "48 nM"
  },
  {
    "molecule": "COc1ccc(COc2ccn(CC(=O)c3ccc(CN(C)C)cc3C)c(=O)c2)nc1",
    "IC50": "57 nM"
  },
  {
    "molecule": "Cc1cc(CN2CCCC2)ccc1C(=O)Cn1ccc(OCc2ccc(F)cn2)cc1=O",
    "IC50": "67 nM"
  },
  {
    "molecule": "Cc1cc(CN2CCCCC2)ccc1C(=O)Cn1ccc(OCc2ccccc2)cc1=O",
    "IC50": "11 nM"
  },
  {
    "molecule": "Cc1cc(CN2CCC[C@H](O)C2)ccc1C(=O)Cn1ncc(OCc2ccc(Br)cn2)cc1=O",
    "IC50": "24 nM"
  },
  {
    "molecule": "Cc1cc(CN2CCOC(C)C2)ccc1C(=O)Cn1ncc(OCc2ccccc2)cc1=O (stereo not drawn)",
    "IC50": "30 nM"
  },
  {
    "molecule": "Cc1cc(CN(C)C)ccc1C(=O)Cn1ncc(OCc2ccccc2)cc1=O",
    "IC50": "9 nM"
  },
  {
    "molecule": "Cc1cc(CN2CC[C@H](O)C2)ccc1C(=O)Cn1ncc(OCc2ccc(F)cn2)cc1=O",
    "IC50": "49 nM"
  }
]

====

Catalogue of log10 of CLint values
System: human hepatocytes
Experiment: Metabolic degradation in human hepatocytes (intrinsic clearance)
Type: in vitro ADME
Details: human hepatocyte suspension, 1 μM test compound, 5% human serum, 6 h
Experimental: Determination of Metabolic Degradation in Human Hepatocytes for Compounds of the Invention The metabolic degradation of the test compound is determined in a hepatocyte suspension. […] Decline of parent compound is analyzed by HPLC-MS/MS. CLint is calculated as follows CL_[…]=Dose/AUC=(CO/CD)/(AUD+clast/k)×1000/60. […]
property.measured: log10 of CLint (log10 of the value in μL/min/10e6 cells)

[
  {
    "molecule": "CN(C)Cc1ccc(C(=O)Cn2ncc(OCc3ccc(Br)cn3)cc2=O)cc1 [Example 12.2 in WO2009/103478, reference compound]",
    "observed.measurement": 1.76
  },
  {
    "molecule": "Cc1cc(CN(C)C)ccc1C(=O)Cn1ncc(OCc2ccc(F)cn2)cc1=O",
    "observed.measurement": 0.23
  },
  {
    "molecule": "Cc1cc(CN(C)C)ccc1C(=O)Cn1ccc(OCc2ccc(Br)cn2)cc1=O",
    "observed.measurement": 1.32
  },
  {
    "molecule": "COc1ccc(COc2cnn(CC(=O)c3ccc(CN(C)C)cc3)c(=O)c2)nc1 [Example 9.1c, reference compound]",
    "observed.measurement": 1.43
  },
  {
    "molecule": "Cc1cc(CN(C)C)ccc1C(=O)Cn1ccc(OCc2ccc(Cl)cn2)cc1=O",
    "observed.measurement": 1.14
  },
  {
    "molecule": "CN(C)Cc1ccc(C(=O)Cn2ccc(OCc3ccc(Cl)cn3)cc2=O)cc1 [Example 9.2 in WO2009/103478, reference compound]",
    "observed.measurement": 1.84
  },
  {
    "molecule": "CN(C)Cc1ccc(C(=O)Cn2ncc(OCc3ccc(F)cn3)cc2=O)cc1 [Example 33.5 in WO2008/22979, reference compound]",
    "observed.measurement": 1.00
  },
  {
    "molecule": "CN(C)Cc1ccc(C(=O)Cn2ccc(OCc3ccc(Br)cn3)cc2=O)cc1 [Example 11.2 in WO2009/103478, reference compound]",
    "observed.measurement": 1.82
  },
  {
    "molecule": "Cc1cc(CN(C)C)ccc1C(=O)Cn1ncc(OCc2ccccc2)cc1=O",
    "observed.measurement": 0.68
  },
  {
    "molecule": "Cc1cc(CN(C)C)ccc1C(=O)Cn1ncc(OCc2ccc(Br)cn2)cc1=O",
    "observed.measurement": 1.06
  },
  {
    "molecule": "COc1ccc(COc2cnn(CC(=O)c3ccc(CN(C)C)cc3C)c(=O)c2)nc1",
    "observed.measurement": 0.52
  },
  {
    "molecule": "CN(C)Cc1ccc(C(=O)Cn2ncc(OCc3ccccc3)cc2=O)cc1 [Example 32.7 in WO2008/22979, reference compound]",
    "observed.measurement": 1.23
  },
  {
    "molecule": "CN(C)Cc1ccc(C(=O)Cn2ccc(OCc3ccccc3)cc2=O)cc1 [Example 29.8 in WO2008/22979, reference compound]",
    "observed.measurement": 1.39
  },
  {
    "molecule": "Cc1cc(CN(C)C)ccc1C(=O)Cn1ccc(OCc2ccccc2)cc1=O",
    "observed.measurement": 0.59
  }
]

# credit: patent US8933079B2
